# Test result (number of subject) (−) values compiled below
System: human skin
Test: Skin irritation test of active ingredient (patch method, CTFA guidelines)
Type: in vivo
Details: content 0.5 wt %; 20 people, 24 h patch; (−) no erythema
Experimental: A filter paper disk was placed in an 8 mm diameter, 10 panels of pin chamber. After 24 hours, the pin chamber was removed, and skin conditions were visually observed. The degree and grade for skin irritation were calculated according to the following Equation 2, and the results are shown in Table 4 below. [Criteria for Skin Irritation] […]
The answer should be a number; do not append a unit.

# count of solved cases: 5
O=C(O)CN(CCN(CCN(CC(=O)O)CC(=O)O)CC(=O)O)CCN(CC(=O)O)CC(=O)O [Embodiment 1] | 19
O=C(O)c1ccc(N(CCN(CCN(c2ccc(C(=O)O)cc2)c2ccc(C(=O)O)cc2)c2ccc(C(=O)O)cc2)CCN(c2ccc(C(=O)O)cc2)c2ccc(C(=O)O)cc2)cc1 [Embodiment 2] | 20
NCCNCCNCCN [Trientine, Triethylenetetramine, reference compound] | 19
O=C(O)c1ccc(N2CCN(c3ccc(C(=O)O)o3)CCN(c3ccc(C(=O)O)o3)CCN(c3ccc(C(=O)O)o3)CC2)o1 [Embodiment 8] | 20
O=C(O)c1ccc(N2CCCN(c3ccc(C(=O)O)cc3)CCN(c3ccc(C(=O)O)cc3)CCCN(c3ccc(C(=O)O)cc3)CC2)cc1 [Embodiment 10] | 20

Now for the compound whose Test result (number of subject) (−) we want.
Please look at O=C(O)c1cncc(N2CCN(c3cncc(C(=O)O)c3)CCN(c3cncc(C(=O)O)c3)CCN(c3cncc(C(=O)O)c3)CC2)c1 [Embodiment 7] and tell me its recorded Test result (number of subject) (−) on human skin.
20

* * *

Tested on: human skin
Experiment: Skin irritation test of active ingredient (patch method, CTFA guidelines)
Assay type: in vivo
Conditions: content 1.0 wt %; 20 people, 24 h patch; (±) slightly reddish
quantity: Test result (number of subject) (±)
// no unit, no text: just the number

Consider the worked cases shown below.
O=C(O)c1cncc(N2CCN(c3cncc(C(=O)O)c3)CCN(c3cncc(C(=O)O)c3)CCN(c3cncc(C(=O)O)c3)CC2)c1 [Embodiment 7] | 0
C1CNCCNCCNCCN1 [Cyclen, 1,4,7,10-tetraazacyclododecane] | 1
O=C(O)CN(CCN(CCN(CC(=O)O)CC(=O)O)CC(=O)O)CCN(CC(=O)O)CC(=O)O [Embodiment 1] | 4

Look up and report measured Test result (number of subject) (±) for this entry: O=C(O)CN1CCCN(CC(=O)O)CCN(CC(=O)O)CCCN(CC(=O)O)CC1 [Embodiment 9]
2

Answer with the recorded Test result (number of subject) (±) of O=C(O)c1ccc(N(CCN(CCN(c2ccc(C(=O)O)cc2)c2ccc(C(=O)O)cc2)c2ccc(C(=O)O)cc2)CCN(c2ccc(C(=O)O)cc2)c2ccc(C(=O)O)cc2)cc1 [Embodiment 2] only.
1

Return reported Test result (number of subject) (±). Input molecule: O=C(O)c1ccc(N2CCCN(c3ccc(C(=O)O)cc3)CCN(c3ccc(C(=O)O)cc3)CCCN(c3ccc(C(=O)O)cc3)CC2)cc1 [Embodiment 10]
1

In one line, give reported Test result (number of subject) (±) of the entry O=C(O)c1cncc(N2CCCN(c3cncc(C(=O)O)c3)CCN(c3cncc(C(=O)O)c3)CCCN(c3cncc(C(=O)O)c3)CC2)c1 [Embodiment 11] .
2

Answer with the recorded Test result (number of subject) (±) for the molecule listed here: O=C(O)c1ccc(N2CCCN(c3ccc(C(=O)O)o3)CCN(c3ccc(C(=O)O)o3)CCCN(c3ccc(C(=O)O)o3)CC2)o1 [Embodiment 12]
1

* * *

Reported Nickel (Ni) Adsorption amount values follow for various molecules
Test: Heavy metal removal ability test in contaminated soil (ICP-MS), nickel
Settings: content 2.0% aqueous solution; contaminated soil
Entry rule: numbers only, all in ppm.

O=C(O)CN1CCN(CC(=O)O)CCN(CC(=O)O)CCN(CC(=O)O)CC1 [Embodiment 5] | 89
O=C(O)c1ccc(N2CCCN(c3ccc(C(=O)O)cc3)CCN(c3ccc(C(=O)O)cc3)CCCN(c3ccc(C(=O)O)cc3)CC2)cc1 [Embodiment 10] | 94
O=C(O)CN(CCN(CCN(CC(=O)O)CC(=O)O)CC(=O)O)CCN(CC(=O)O)CC(=O)O [Embodiment 1] | 112
O=C(O)c1cncc(N2CCN(c3cncc(C(=O)O)c3)CCN(c3cncc(C(=O)O)c3)CCN(c3cncc(C(=O)O)c3)CC2)c1 [Embodiment 7] | 102
O=C(O)c1ccc(N2CCCN(c3ccc(C(=O)O)o3)CCN(c3ccc(C(=O)O)o3)CCCN(c3ccc(C(=O)O)o3)CC2)o1 [Embodiment 12] | 89
O=C(O)c1ccc(N2CCN(c3ccc(C(=O)O)o3)CCN(c3ccc(C(=O)O)o3)CCN(c3ccc(C(=O)O)o3)CC2)o1 [Embodiment 8] | 99

Tell us which Nickel (Ni) Adsorption amount value is on record for O=C(O)c1ccc(N(CCN(CCN(c2ccc(C(=O)O)cc2)c2ccc(C(=O)O)cc2)c2ccc(C(=O)O)cc2)CCN(c2ccc(C(=O)O)cc2)c2ccc(C(=O)O)cc2)cc1 [Embodiment 2]
103

For O=C(O)c1cncc(N2CCCN(c3cncc(C(=O)O)c3)CCN(c3cncc(C(=O)O)c3)CCCN(c3cncc(C(=O)O)c3)CC2)c1 [Embodiment 11] , write its Nickel (Ni) Adsorption amount.
93

Specify measured Nickel (Ni) Adsorption amount for C1CNCCNCCNCCN1 [Cyclen, 1,4,7,10-tetraazacyclododecane] .
98

Identify Nickel (Ni) Adsorption amount associated with the molecule O=C(O)CN1CCCN(CC(=O)O)CCN(CC(=O)O)CCCN(CC(=O)O)CC1 [Embodiment 9]
96

Assign Nickel (Ni) Adsorption amount to the following record: O=C(O)c1ccc(N(CCN(CCN(c2ccc(C(=O)O)o2)c2ccc(C(=O)O)o2)c2ccc(C(=O)O)o2)CCN(c2ccc(C(=O)O)o2)c2ccc(C(=O)O)o2)o1 [Embodiment 4]
104

Read off the recorded Nickel (Ni) Adsorption amount for NCCNCCNCCN [Trientine, Triethylenetetramine, reference compound]
131

Complete the entry with Nickel (Ni) Adsorption amount for O=C(O)c1ccc(N2CCN(c3ccc(C(=O)O)cc3)CCN(c3ccc(C(=O)O)cc3)CCN(c3ccc(C(=O)O)cc3)CC2)cc1 [Embodiment 6]
87

* * *

Test system: human skin
Assay: Skin irritation test of active ingredient (patch method, CTFA guidelines)
Assay type: in vivo
Conditions: content 0.5 wt %; 20 people, 24 h patch; (±) slightly reddish
quantity: Test result (number of subject) (±)
Lab note: record the figure alone, no unit after it.

Answered examples (5):
O=C(O)CN(CCN(CCN(CC(=O)O)CC(=O)O)CC(=O)O)CCN(CC(=O)O)CC(=O)O | 1
O=C(O)c1ccc(N2CCN(c3ccc(C(=O)O)cc3)CCN(c3ccc(C(=O)O)cc3)CCN(c3ccc(C(=O)O)cc3)CC2)cc1 | 0
C1CNCCNCCNCCN1 | 0
O=C(O)c1ccc(N(CCN(CCN(c2ccc(C(=O)O)cc2)c2ccc(C(=O)O)cc2)c2ccc(C(=O)O)cc2)CCN(c2ccc(C(=O)O)cc2)c2ccc(C(=O)O)cc2)cc1 | 0
O=C(O)c1ccc(N2CCCN(c3ccc(C(=O)O)cc3)CCN(c3ccc(C(=O)O)cc3)CCCN(c3ccc(C(=O)O)cc3)CC2)cc1 | 0

Indicate its recorded Test result (number of subject) (±); the compound in question is O=C(O)CN1CCN(CC(=O)O)CCN(CC(=O)O)CCN(CC(=O)O)CC1
0

Identify measured Test result (number of subject) (±) associated with O=C(O)CN1CCCN(CC(=O)O)CCN(CC(=O)O)CCCN(CC(=O)O)CC1
0

* * *

Assay: Heavy metal removal ability test in contaminated soil (ICP-MS), nickel
Settings: content 1.0%; relative to EDTA control
quantity: Nickel (Ni) Adsorption rate (%)
Please respond with the number in % and leave the unit unwritten.

Example entries and their recorded answers appear below.
O=C(O)c1cncc(N2CCN(c3cncc(C(=O)O)c3)CCN(c3cncc(C(=O)O)c3)CCN(c3cncc(C(=O)O)c3)CC2)c1 [Embodiment 7] | 198
O=C(O)CN1CCCN(CC(=O)O)CCN(CC(=O)O)CCCN(CC(=O)O)CC1 [Embodiment 9] | 173

Supply Nickel (Ni) Adsorption rate value. Item: O=C(O)c1ccc(N(CCN(CCN(c2ccc(C(=O)O)o2)c2ccc(C(=O)O)o2)c2ccc(C(=O)O)o2)CCN(c2ccc(C(=O)O)o2)c2ccc(C(=O)O)o2)o1 [Embodiment 4]
192

* * *

Assay: Heavy metal removal ability test in contaminated soil (ICP-MS), arsenic
Conditions: content 0.5%; relative to EDTA control
quantity: Arsenic (As) Adsorption rate (%)
The answer is to be given in %; state only the numeric part.

Please review the entries below; each comes with its answer.
O=C(O)c1ccc(N(CCN(CCN(c2ccc(C(=O)O)cc2)c2ccc(C(=O)O)cc2)c2ccc(C(=O)O)cc2)CCN(c2ccc(C(=O)O)cc2)c2ccc(C(=O)O)cc2)cc1 [Embodiment 2] | 192
NCCNCCNCCN [Trientine, Triethylenetetramine, reference compound] | 196

Next item in the queue.
Specify reported Arsenic (As) Adsorption rate for the compound shown: O=C(O)c1cncc(N2CCN(c3cncc(C(=O)O)c3)CCN(c3cncc(C(=O)O)c3)CCN(c3cncc(C(=O)O)c3)CC2)c1 [Embodiment 7]
164

Each recorded value in this set is attributed to patent US20210207064A1.
